SYSTEM_NAME: T1, recombinant human VEGF165 (human, UniProt P15692 27-191)
T1 construct: mature; Isoform VEGF165 of the entry; also called hVEGF165; hVEGF
TEST_PROTOCOL: VEGFR1/Fc competition ELISA on coated hVEGF165; ratio to Lucentis
Reported values of Rel. activity hVEGR1 comp. ELISA (EC50Luc[nM]/EC50test[nM]) for individual entries
// keep it numeric: no unit symbol after the value

511-min (scFv, VL and VH tied by name; also called Protein Nr) scFv: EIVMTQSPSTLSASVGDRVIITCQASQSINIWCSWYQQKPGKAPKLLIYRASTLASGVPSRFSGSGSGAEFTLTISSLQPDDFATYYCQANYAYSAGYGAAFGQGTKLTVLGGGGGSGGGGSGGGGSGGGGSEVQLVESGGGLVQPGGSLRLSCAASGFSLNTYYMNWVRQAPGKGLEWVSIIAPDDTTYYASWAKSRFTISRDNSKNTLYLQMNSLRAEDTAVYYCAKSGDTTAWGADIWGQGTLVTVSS    0.7

Exercise: Input 509-min (scFv, VL and VH tied by name; also called Protein Nr; 854) scFv: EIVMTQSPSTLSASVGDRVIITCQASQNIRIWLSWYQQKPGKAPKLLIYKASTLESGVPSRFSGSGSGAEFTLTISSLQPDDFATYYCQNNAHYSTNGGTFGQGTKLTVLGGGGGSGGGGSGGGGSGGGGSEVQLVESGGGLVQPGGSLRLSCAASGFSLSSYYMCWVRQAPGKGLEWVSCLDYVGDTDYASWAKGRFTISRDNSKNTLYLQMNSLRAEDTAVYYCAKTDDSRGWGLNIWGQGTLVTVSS , output reported Rel. activity hVEGR1 comp. ELISA (EC50Luc[nM]/EC50test[nM]).
Solution: 2.9

Exercise: Identify Rel. activity hVEGR1 comp. ELISA (EC50Luc[nM]/EC50test[nM]) associated with the binder 435-max (scFv, the scFv entry is used; also called Protein Nr; 945) scFv: EIVMTQSPSTLSASVGDRVIITCQASQSIGSSLAWYQQKPGKAPKLLIYTAANLASGVPSRFSGSRSGAEFTLTISSLQPDDFATYYCQNFATSDTVTFGQGTKLTVLGGGGGSGGGGSGGGGSGGGGSEVQLVESGGGLVQPGGSLRLSCKASGFSLNTNYWMCWVRQAPGKGLEWVGCMYTGSYNRAYYASWAKGRFTSSKDTSKNTVYLQMNSLRAEDTAVYYCAKGSNWYSDLWGQGTLVTVSS
Solution: 0.00039

Exercise: # return recorded Rel. activity hVEGR1 comp. ELISA (EC50Luc[nM]/EC50test[nM]) for entry 509-maxII (scFv, VH tied by name; also called Protein Nr) scFv: EIVMTQSPSTLSASVGDRVIITCQASQNIRIWLSWYQQKPGKAPKLLIYKASTLESGVPSRFSGSGSGTEFTLTISSLQPDDFATYYCQNNAHYSTNGGTFGQGTKLTVLGGGGGSGGGGSGGGGSGGGGSEVQLVESGGGLVQPGGSLRLSCTASGFSLSSYYMSWVRQAPGKGLEWVGILDYVGDTDYASWAKGRFTISKDASKNTVYLQMNSLRAEDTAVYYCARTDDSRGWGLNIWGQGTLVTVSS
Solution: 0.09

Recorded values, source patent US20150274820A1.
